Tested on: HepG2
protocol_details: cell viability relative to DMSO; higher = less toxic
condition_details: 72 h; 10 nM
This section presents molecules with their documented cell viability values.
metric: cell viability

* CN1Cc2c(C(=O)OC(C)(C)C)ncn2-c2ccsc2C1=O | 96.9%
* C[C@@H](NCCCc1cccc(C(F)(F)F)c1)c1cccc2ccccc12 | 102%
* O=C1NCC2(CCN(CCc3ccccc3)CC2)O1 [fenspiride] | 107%
* CCOC(=O)NNc1ccc(N(CC)CC(C)O)nn1 (stereo not drawn) | 103%
* CNC(=O)c1ccccc1Nc1cc(Nc2ccc(N3CCOCC3)cc2OC)ncc1C(F)(F)F | 93.2%
* O=C(O)c1cc(O)c2c(c1)[C@H]([C@H]1c3cc(C(=O)O)cc(O)c3C(=O)c3c(O[C@@H]4O[C@H](CO)[C@@H](O)[C@H](O)[C@H]4O)cccc31)c1cccc(O[C@@H]3O[C@H](CO)[C@@H](O)[C@H](O)[C@H]3O)c1C2=O [sennoside-A] | 91.7%
* CNCc1ccc(-c2cc(-c3nc(-c4ccc(S(=O)(=O)C(C)C)cc4)cnc3N)on2)cc1 | 99%
* C[C@]12CC[C@H](O)CC1=CC[C@@H]1[C@@H]2CC[C@]2(C)C(=O)CC[C@@H]12 | 101%
* Nc1nc(Nc2ccc(S(N)(=O)=O)cc2)nn1C(=O)c1c(F)cccc1F | 103%
* Oc1ccc2c3c1O[C@H]1c4c(c5ccccc5n4Cc4ccccc4)C[C@@]4(O)[C@@H](C2)N(CC2CC2)CC[C@]314 | 98.9%
* CC1(C)OC(=O)C(OCC2CC2)=C1c1ccc(S(C)(=O)=O)cc1 | 97.7%
* O=C1Nc2ccccc2/C1=C1/Nc2ccccc2C1=O | 110%
* O=C1OC(CN2CCOCC2)CN1/N=C/c1ccc([N+](=O)[O-])o1 (stereo not drawn) | 93.3%
* CC(=O)NCCC(=O)N[C@@H](Cc1c[nH]cn1)C(=O)O | 88.3%
* CC(C)NC[C@@H](O)COc1ccc(CC(N)=O)cc1 (racemic) [atenolol-(+/-)] | 92%
* COc1ccc(C(CN(C)C)C2(O)CCCCC2)cc1 (stereo not drawn) | 112%
* Cc1nnsc1C(=O)Nc1ccc(-n2nc(C(F)(F)F)cc2C(F)(F)F)cc1 | 98.8%
* CCOCCn1c(N2CCCN(C)CC2)nc2ccccc21 | 98.4%

###

Listing: cell viability of selected molecules
Test system: Calu-3
protocol_details: cell viability relative to DMSO; higher = less toxic
condition_details: 72 h; 100 nM
metric: cell viability (%)

* CCN(CC)C(=O)N1CCN(C)CC1 | 103
* c1ccc2c(c1)OC[C@H](CNCCCOc1ccc3c(c1)OCO3)O2 | 109
* O=C(O)CNC(=O)c1ccccc1I | 91.7
* CCOC(=O)c1ncc2[nH]c3cccc(OC(C)C)c3c2c1C | 99.1
* COc1ccc(-c2nc(C(=O)N3CCN(C)CC3)sc2-c2ccc(OC)cc2)cc1 | 99.7
* C[C@@](Cc1ccc(O)c(O)c1)(NN)C(=O)O | 89.5
* Oc1ccc(-c2c(-c3ccccc3)nn3c(C(F)(F)F)cc(C(F)(F)F)nc23)cc1 | 97.4
* OCCCNc1ccccc1 | 99.6
* CNC(=O)c1ccc2c(c1)S(=O)(=O)c1ccccc1C2=O [BW-616U] | 102
* OC(c1ccccc1)(c1ccccc1)C1CCNCC1 | 90

###

System: A549-ACE2 infected with SARS-CoV-2
protocol_details: cell count relative to DMSO; higher = less toxic
condition_details: 30 µM; 24 h
Structures can show the parent of a compound that is named as a salt.
metric: cell count (%)

• CC(C)C[C@@H](C=O)NC(=O)[C@H](CC(C)C)NC(=O)[C@H](CC(C)C)NC(=O)OCc1ccccc1 = 14
• O=C(Nc1ncc(SCCN2CCCC2)s1)[C@]1(c2ccc(S(=O)(=O)C3CC3)cc2)C[C@H]1C1CCCCC1 = 56
• O=C(O)CCCCCCCC(=O)O = 102
• CCSc1ccc2c(c1)N(CCCN1CCN(C)CC1)c1ccccc1S2 = 17
• CC/C(=C(\c1ccc(O)cc1)c1ccc(OCCNC)cc1)c1ccccc1 [Endoxifen HCl] = 25

###

# reported drug sensitivity score; entries follow
Tested on: Caco-2
protocol_details: drug sensitivity score (DSS) for viability; higher = more toxic; extreme values may be limits of the assay
condition_details: 72 h
metric: drug sensitivity score

* Nc1ccc(-c2ccc3ncc4ccc(=O)n(-c5cccc(C(F)(F)F)c5)c4c3c2)cn1 | 26.6
* CNc1cc(OC)c(C(=O)NC2CCN(Cc3ccccc3)C2C)cc1Cl (centres undefined) [nemonapride] | 0
* CNC(=O)c1cc(COc2nnc(Nc3ccc(Cl)cc3)c3ccoc23)ccn1 | 0
* COc1ccc(-c2nc(C(=O)N3CCN(C)CC3)sc2-c2ccc(OC)cc2)cc1 | 0
* CCS(=O)(=O)c1cccc(-c2cc(C(=O)NC3CCN(C)CC3)c(C)c3[nH]c4ncc(C)cc4c23)c1 | 6.7
* O=C(c1cccc(Cl)c1F)N1CCN(Cc2cccc(Nc3nccs3)n2)CC1 | 2.8
* CN1CCc2cc(Cl)c(O)cc2[C@@H](c2ccccc2)C1 | 0
* O=C1NCC2(CCN(CCc3ccccc3)CC2)O1 [fenspiride] | 0
* O=c1[nH]cnc2nc[nH]c12 | 0

###

Items are presented alongside their recorded cell viability.
Test system: HepG2
protocol_details: cell viability relative to DMSO; higher = less toxic
condition_details: 72 h; 10000 nM
metric: cell viability (%)

• C[C@@H]1O[C@@H](O[C@H]2[C@H](Oc3cc(O)c4c(c3)O[C@H](c3ccc(O)cc3)CC4=O)O[C@H](CO)[C@@H](O)[C@@H]2O)[C@H](O)[C@H](O)[C@H]1O [Naringin (Naringoside)] = 98.9
• C=C1/C(=C\C=C2/CCC[C@]3(C)[C@@H]([C@H](C)/C=C/[C@H](C)C(C)C)CC[C@@H]23)C[C@@H](O)C[C@@H]1O = 99.9
• NC(=O)CN1CC(O)CC1=O (stereo not drawn) = 94.8
• C/N=C(/NC#N)NCCSCc1csc(NC(=N)N)n1 = 113
• COc1ccc(-c2nc(C(=O)N3CCN(C)CC3)sc2-c2ccc(OC)cc2)cc1 = 98.5
• Cc1nc(-c2cccnc2)sc1C(=O)Nc1ccccc1-c1cn2c(CN3CCOCC3)csc2n1 = 108
• Cc1nnsc1C(=O)Nc1ccc(-n2nc(C(F)(F)F)cc2C(F)(F)F)cc1 = 90.9
• CCCNC(C)C(=O)Nc1ccccc1C (stereo not drawn) = 98.8
• C[C@]12CC[C@H](O)C[C@H]1CC[C@@H]1[C@@H]2CC[C@]2(C)[C@@H](C3=CC(=O)OC3)CC[C@]12O = 12.2
• O=C(O)CCC(=O)OC[C@@H](NC(=O)C(Cl)Cl)[C@H](O)c1ccc([N+](=O)[O-])cc1 [chloramphenicol-sodium-succinate] = 96.3
• COc1ccccc1NC(=O)OCC1CCN(C(=O)OC(C)(C)C)CC1 = 104
• COC(=O)Nc1nc2cc(C(=O)c3ccc(F)cc3)ccc2[nH]1 = 40.4
• CCOC(=O)NNc1ccc(N(CC)CC(C)O)nn1 (stereo not drawn) = 106
• O=C(O)c1cc2ccccc2s1 = 110
• C[C@@H]1COCCN1c1cc(=O)n2c(n1)N(Cc1cncc(Cl)c1)[C@H](C(F)(F)F)CC2 = 55.5
• CNC(=O)c1cc(COc2nnc(Nc3ccc(Cl)cc3)c3ccoc23)ccn1 = 114
• CC(=O)/N=c1/[nH]c(C)c(-c2ccc(Cl)c(S(=O)(=O)NCCO)c2)s1 = 34.7
• C[N+](C)(C)CC#CCN1CCCC1=O = 99.1
• O=C(O)C[CH2][Ge](=[O])[O][Ge](=[O])[CH2]CC(=O)O = 88
• CC(C)c1ccccc1Cc1cc(C(=O)Nc2ccc(S(=O)(=O)c3ccccc3C(C)(C)C)cc2)c(O)c(O)c1O = 20.3
• CCC(=O)c1ccc(OCC(O)CN2CCN(c3ccccc3)CC2)cc1 (stereo not drawn) = 90
• COc1ccc(-c2cc3c(C)nc(N)nc3n([C@H]3CC[C@H](OCCO)CC3)c2=O)cn1 = 20.1
• C[C@H](NC(=O)[C@@H](O)c1cc(F)cc(F)c1)C(=O)N[C@@H]1C(=O)N(C)c2ccccc2-c2ccccc21 = 88.2
• CC(CCc1ccccc1)NCC(O)c1ccc(O)c(C(N)=O)c1 (stereo not drawn) = 99.6
• CCOC(=O)C1=C(N)Oc2ccc(Br)cc2C1C(C#N)C(=O)OCC (stereo not drawn) = 96.8
• CCCCCCCCCCC(CO)CCCCCCCC (stereo not drawn) = 98.3
• COc1cnc(NS(=O)(=O)c2ccc(N)cc2)nc1 = 106
• C[C@]12CC[C@H](O)C[C@H]1CC[C@@H]1[C@@H]2C[C@@H](O)[C@]2(C)[C@@H](C3=CC(=O)OC3)CC[C@]12O = 12.6
• CCOc1ccc(C[C@H]2NC(=O)CCSSC[C@@H](C(=O)N3CCC[C@H]3C(=O)N[C@@H](CCCN)C(=O)NCC(N)=O)NC(=O)[C@H](CC(N)=O)NC(=O)[C@H]([C@@H](C)O)NC(=O)[C@H]([C@@H](C)CC)NC2=O)cc1 = 97.4
• CCc1cc(/C(C)=N/OCc2ccc(C3CCCCC3)c(C(F)(F)F)c2)ccc1CN1CC(C(=O)O)C1 = 97.4
• O=C1COc2c(CCNCCN(C(=O)CCNCCc3ccc(Cl)c(Cl)c3)C3CCCCC3)ccc(O)c2N1 = 89.4
• N#Cc1cccc(-c2nc(-c3cccnc3)no2)c1 = 98.8
• COc1ccc2c(Oc3ccc(NC(=O)c4c(C)n(CC(C)(C)O)n(-c5ccccc5)c4=O)nc3)ccnc2c1 = 65.8
